Biological target: unrelated Fc-fused recombinant protein
Assay: ELISA, lysate on plate-bound antigen
Reported values of ELISA Fc Control (RSU) for individual entries
Number in RSU, nothing else.

Examples with their reported ELISA Fc Control (RSU) follow.
binder	measure_name	data_value
ISOP121FR5P1G1 (designed binder, not shown: small tags and cut ends, FN3 domain; E. coli lysate in the ELISA) LPAPKNLVVSRVTEDSARLSWTAPDAAFDSFWIHYTEAPVHGEAIVLTVPGSERSYDLTGLKPGTEYTVVIWGVKGGTWSSPLSAIFTT	ELISA Fc Control (RSU)	640
ISOP121AR5P1H1 (designed binder, not shown: small tags and cut ends, FN3 domain; E. coli lysate in the ELISA) LPAPKNLVVSRVTEDSARLSWKQATKFVFDSFLIQYQESEKVGEAIVLTVPGSERSYDLTGLKPGTEYTVSIYGVPDWFVLESNPLSAIFTT	ELISA Fc Control (RSU)	880
ISOP121BR5P1G3 (designed binder, not shown: small tags and cut ends, FN3 domain; E. coli lysate in the ELISA) LPAPKNLVVSRVTEDSARLSWKQRTSFHFDSFLIQYQESEKVGEAIVLTVPGSERSYDLTGLKPGTEYTVSIYGVPFWQQWQPESNPLSAIFTT	ELISA Fc Control (RSU)	560

Now let's try a different one.
Would you kindly share the measured ELISA Fc Control (RSU) for ISOP194BR9P1C8 (designed binder, not shown: small tags and cut ends, FN3 domain; E. coli lysate in the ELISA) LPAPKNLVVSRVTEDSARLSWYFAGELWFDSFLIQYQESEKVGEAIVLTVPGSERSYDLTGLKPGTEYTVSIYGVYQRGYHNWFSNPLSAIFTT ?
640
